For each record, write down the corresponding half-life at 0.5 µM.
assay: in vitro; settings: rat, liver microsomes
Description: Half life in rat liver microsomes at 0.5 uM in presence of NADPH by LC-MS/MS method

# molecule `C=C(C)[C@@H]1CC[C@]2(CN(CCCN3CCS(=O)(=O)CC3)C3CC3)CC[C@]3(C)[C@H](CC[C@@H]4[C@@]5(C)CC=C(c6ccc(C(=O)O)cc6)C(C)(C)[C@@H]5CC[C@]43C)[C@@H]12` ; its half-life at 0.5 µM = > 120 min

# molecule `C=C(C)[C@@H]1CC[C@]2(CNCCCO)CC[C@]3(C)[C@H](CC[C@@H]4[C@@]5(C)CC=C(c6ccc(C(=O)O)cc6)C(C)(C)[C@@H]5CC[C@]43C)[C@@H]12` ; its half-life at 0.5 µM = > 120 min

# molecule `C=C(C)[C@@H]1CC[C@]2(CNCCN(C)C)CC[C@]3(C)[C@H](CC[C@@H]4[C@@]5(C)CC=C(c6ccc(C(=O)O)cc6)C(C)(C)[C@@H]5CC[C@]43C)[C@@H]12` ; its half-life at 0.5 µM = > 120 min

# molecule `C=C(C)[C@@H]1CC[C@]2(C(=O)O)CC[C@]3(C)[C@H](CC[C@@H]4[C@@]5(C)CC=C(c6ccc(C(=O)O)cc6)C(C)(C)[C@@H]5CC[C@]43C)[C@@H]12` ; its half-life at 0.5 µM = > 120 min

# molecule `C=C(C)[C@@H]1CC[C@]2(CNCCN3CCC(F)(F)CC3)CC[C@]3(C)[C@H](CC[C@@H]4[C@@]5(C)CC=C(c6ccc(C(=O)O)cc6)C(C)(C)[C@@H]5CC[C@]43C)[C@@H]12` ; its half-life at 0.5 µM = > 120 min

# molecule `C=C(C)[C@@H]1CC[C@]2(CNCCCN3CCN(C)CC3)CC[C@]3(C)[C@H](CC[C@@H]4[C@@]5(C)CC=C(c6ccc(C(=O)O)cc6)C(C)(C)[C@@H]5CC[C@]43C)[C@@H]12` ; its half-life at 0.5 µM = > 120 min

# molecule `C=C(C)[C@@H]1CC[C@]2(CNCCN3CCNCC3)CC[C@]3(C)[C@H](CC[C@@H]4[C@@]5(C)CC=C(c6ccc(C(=O)O)cc6)C(C)(C)[C@@H]5CC[C@]43C)[C@@H]12` ; its half-life at 0.5 µM = 86 min

# molecule `C=C(C)[C@@H]1CC[C@]2(CNCCNCCO)CC[C@]3(C)[C@H](CC[C@@H]4[C@@]5(C)CC=C(c6ccc(C(=O)O)cc6)C(C)(C)[C@@H]5CC[C@]43C)[C@@H]12` ; its half-life at 0.5 µM = 117 min

# molecule `C=C(C)[C@@H]1CC[C@]2(CNCCN(CC)CC)CC[C@]3(C)[C@H](CC[C@@H]4[C@@]5(C)CC=C(c6ccc(C(=O)O)cc6)C(C)(C)[C@@H]5CC[C@]43C)[C@@H]12` ; its half-life at 0.5 µM = 78 min

# molecule `C=C(C)[C@@H]1CC[C@]2(CNCCCN(C)c3ccccc3)CC[C@]3(C)[C@H](CC[C@@H]4[C@@]5(C)CC=C(c6ccc(C(=O)O)cc6)C(C)(C)[C@@H]5CC[C@]43C)[C@@H]12` ; its half-life at 0.5 µM = > 120 min

# molecule `C=C(C)[C@@H]1CC[C@]2(CNCCCN3CCCCC3)CC[C@]3(C)[C@H](CC[C@@H]4[C@@]5(C)CC=C(c6ccc(C(=O)O)cc6)C(C)(C)[C@@H]5CC[C@]43C)[C@@H]12` ; its half-life at 0.5 µM = 82 min

# molecule `C=C(C)[C@@H]1CC[C@]2(C(=O)NCCN(C)C)CC[C@]3(C)[C@H](CC[C@@H]4[C@@]5(C)CC=C(c6ccc(C(=O)O)cc6)C(C)(C)[C@@H]5CC[C@]43C)[C@@H]12` ; its half-life at 0.5 µM = > 120 min
